Where do the numbers come from? From patent US10995073B2.

molecular target: Human Full Length PARG (Homo sapiens (Human)); test: PARG assay (in vitro enzyme, TR-FRET); settings: PARG biochemical activity; read-out: PARG_EC50_ENZYME
Sequence (Q86W56 whole entry): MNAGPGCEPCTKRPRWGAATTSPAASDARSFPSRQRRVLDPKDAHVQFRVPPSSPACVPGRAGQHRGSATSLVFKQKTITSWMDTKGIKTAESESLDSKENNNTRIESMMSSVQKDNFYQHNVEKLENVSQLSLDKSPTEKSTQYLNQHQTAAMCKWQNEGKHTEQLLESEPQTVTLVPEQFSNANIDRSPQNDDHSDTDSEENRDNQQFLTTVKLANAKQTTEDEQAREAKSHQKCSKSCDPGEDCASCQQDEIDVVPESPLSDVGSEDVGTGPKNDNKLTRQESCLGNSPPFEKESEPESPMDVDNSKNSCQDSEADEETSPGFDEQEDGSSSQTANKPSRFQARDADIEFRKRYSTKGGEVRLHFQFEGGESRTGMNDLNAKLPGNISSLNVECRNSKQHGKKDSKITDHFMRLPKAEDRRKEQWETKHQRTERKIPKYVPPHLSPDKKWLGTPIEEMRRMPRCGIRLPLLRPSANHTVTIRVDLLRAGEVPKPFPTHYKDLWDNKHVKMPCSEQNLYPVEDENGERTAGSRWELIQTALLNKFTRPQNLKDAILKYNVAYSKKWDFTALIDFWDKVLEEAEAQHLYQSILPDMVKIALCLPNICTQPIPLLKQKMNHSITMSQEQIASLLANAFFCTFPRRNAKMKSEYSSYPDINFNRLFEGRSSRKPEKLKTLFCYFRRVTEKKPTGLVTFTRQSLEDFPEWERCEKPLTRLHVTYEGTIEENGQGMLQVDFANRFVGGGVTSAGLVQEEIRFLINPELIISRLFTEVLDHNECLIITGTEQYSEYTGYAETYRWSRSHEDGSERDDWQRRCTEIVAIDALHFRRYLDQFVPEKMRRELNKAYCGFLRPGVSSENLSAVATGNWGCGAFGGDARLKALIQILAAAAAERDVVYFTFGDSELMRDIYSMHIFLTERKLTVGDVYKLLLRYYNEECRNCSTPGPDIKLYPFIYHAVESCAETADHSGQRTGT
Some compounds, each annotated with its measured EC50.
measuredEndpoint: EC50

{"columns": ["smilesData", "reading"],
 "data": [
  ["Cn1c(=O)n(-c2nnc(N)s2)c2cc(S(=O)(=O)NC3(C)CC3)ccc21", "1.55 µM"],
  ["Cc1nsc(-n2c(=O)n(C)c3ccc(S(=O)(=O)NC4(CF)CC4)cc32)n1", "12.2 µM"]
]}
